tested on: MS2 coat protein; assay: apparent KD of MS2 coat protein; designed switch direction (-1 OFF switch, 1 ON switch): -1; higher = weaker reporter binding; settings: input ligand: none
quantity-measured: apparent KD of MS2 coat protein (nM)
# value in nM; strip the unit string

1) GAAAAGGCAGAGGAUAUUUCAGAUCAAAGCUGCAAAGAAGGCUGCACAUGAGGAUCACCCAUGUGGUCUUAAAA [Mod of Quesina 5 - Jieux - Exclusion 6] (Eterna round: R97, puzzle: Exclusion 6) : 18.4
2) UCCUCACAUGAGGAUCACCCAUGUCAGGAUAUACGAACGGUAAGUGACAAUCGAUUACGUAGAAGGGACUGCGG [Eternabot (L1) Solution 78] (Eterna round: R97, puzzle: Exclusion 1) : 121
3) UGUGUGAGACAGGAUAUGCCGGAUGAAUUGCAGGUAGAAGGGUCUACAUGAGGAUCACCCAUGUGGCCGGUUGG [Ex6 #76] (Eterna round: R97, puzzle: Exclusion 6) : 13.6

// returns reported apparent KD of MS2 coat protein for input GUUUUCAGACGGAGAUCCUACAUGAGGAUCACCCAUGUCUCUCUAGCUAAUUGCUCGUCUUAUUCUCCUCUGUUCUC [Elimod 38 - Jieux - Sensor, turn-off variant 1] (Eterna round: R97, puzzle: Sensor, turn-off variant 1) 47.5

###

Recorded apparent KD of MS2 coat protein for the following sequences
system: MS2 coat protein; experiment: apparent KD of MS2 coat protein; higher = weaker reporter binding; conditions: Eterna round: R101; input ligand: none

1. AAAUGAUAUCAGAAGGGCUCCAGCAAAGCUGGAGCAGGAUAUGAGGAUCACCCAUGUCACCUGACGGUCGAAACGACCGUCAGG [#SharedSequence - IExNG1: 7-3] (puzzle (switch architecture): Inverted Exclusion NG 1) : 26.6 nM

// returns reported apparent KD of MS2 coat protein for input GCCAUCGCAUGAGGAUAUGCUCCGGUUUCCGGAGCAGAAGGCAUGUCAUAAGACAUGAGGAUCACCCAUGUAGUUAAGAUGGCA [#HiddenHairpinInALoop - jl-sng1-2.00 jl mod - Original] (puzzle (switch architecture): Same State NG 1) 283 nM

// returns reported apparent KD of MS2 coat protein for input UAUUAUUUGGAGAAGGACAUGAGGAUCACCCAUGUCGCCGGGCCCGGGAAACCGGGCCCGGCCAUGUAGGAUAUCCGGAUGGUA [#This is a good prank 4] (puzzle (switch architecture): Inverted Exclusion NG 2) 7.31 nM

###

system: MS2 coat protein; assay: apparent KD of MS2 coat protein; designed switch direction (-1 OFF switch, 1 ON switch): -1; higher = weaker reporter binding; conditions: input ligand: none
quantity-measured: apparent KD of MS2 coat protein (nM)
# value in nM; strip the unit string

1) UUCACAUGGACAUGAGAUCACAUGAGGAUCACCCAUGUGAAUAACAAGCUUUUUGUUCGUCUUAUGUCCAAUAAUAG [Stov1/14-D3] (Eterna round: R97, puzzle: Sensor, turn-off variant 1) : 14.1

# get_value(readout= apparent KD of MS2 coat protein, system= MS2 coat protein) for UUAACAUGCUGGUGAUCAUACAUGAGGAUCACCCAUGUAACAAGCUUUUUGUUCGUCUUAAUUUAAUUGAUUACUAG [Stov1/8-B1] (Eterna round: R97, puzzle: Sensor, turn-off variant 1) 248

# get_value(readout= apparent KD of MS2 coat protein, system= MS2 coat protein) for CGCUGGACAGGAUAUGUUCUUGGGCACUUGAGGAUCACCCAAGUCAUCGGGACAUCAGGCACAGAAGGGUUUAUGG [salish99_ex5_r4_026] (Eterna round: R97, puzzle: Exclusion 5) 21.1

###

system: MS2 coat protein; assay: apparent KD of MS2 coat protein; designed switch direction (-1 OFF switch, 1 ON switch): -1; higher = weaker reporter binding; details: input ligand: none
quantity-measured: apparent KD of MS2 coat protein (nM)
# value in nM; strip the unit string

// returns reported apparent KD of MS2 coat protein for input AGUGUGUGGCAGGAUAUGCAAUUAAUAGGUGAAGCAGAAGGGUCUACAUGAGGAUCACCCAUGUAUGCGGUUGA [Ex6 #23] (Eterna round: R97, puzzle: Exclusion 6) 68.5

// returns reported apparent KD of MS2 coat protein for input AAUUAGUAUGUGAGGAUAUUGAUGUAAUGACGGUUUAAGAAGGCACAUGAGGAUCACCCAUGUAAAUGAUCACG [JR_BMEx4_Sub008] (Eterna round: R97, puzzle: Brourd's mod of Exclusion 4) 37.7

// returns reported apparent KD of MS2 coat protein for input AUGGUUCGAUUAGGAUAUUAUAGAUUGAAUAGUAUGAUUUACAUGAGGAUCACCCAUGUUACAUUUAAGAAGGAAUCGAAUCAU [JR_ExcNG2_Sub088] (Eterna round: R96, puzzle: Exclusion NG 2) 21.5

// returns reported apparent KD of MS2 coat protein for input ACCGCAAGAGGAUAUACAUGAGGAUCACCCAUGUCGACCGCGAGAGACGUGGACCGGCGUAGAAGGCUUGCCAC [Eternabot (Original) Solution 50] (Eterna round: R97, puzzle: Exclusion 3) 56.8

// returns reported apparent KD of MS2 coat protein for input ACCUCACAUGAGGAUCACCCAUGUCAGGAUAUCCAACAUGCUCCCAGGACCAAGCAUAGGAGAAGGGACAUGCG (Eterna round: R97, puzzle: Exclusion 1) 27.2

###

tested on: MS2 coat protein; assay: apparent KD of MS2 coat protein; designed switch direction (-1 OFF switch, 1 ON switch): 1; higher = weaker reporter binding; conditions: input ligand: FMN 200 uM
Recorded apparent KD of MS2 coat protein for the following sequences
Write your answer as a measured quantity: the number, then the unit.

1) AUUACUAGCAUAGGAUAUCAUGCGAAAAUUGCGUGAGAAGGGUGGACGCUGUCAUUCACGGAAGACAUGAGGAUCACCCAUGUC [SameState NG1 #74] (Eterna round: R96, puzzle: Same State NG 1) : 142 nM
2) GGUGCCAAUAAAGCCUACAUGAGGAUCACCCAUGUAUGUAGGCAGGAUAUCGUUUGCAAAGCAAACGAGAAGGGCUGAGGCACC [Mat - Same State NG 3 - JL Mod - D52] (Eterna round: R96, puzzle: Same State NG 3) : 18.4 nM
3) GGUGCCAAUAAAGCCUACAUGAGGAUCACCCAUGUAUGUAGGCAGGAUAUCGUUUGCUUUGCAAACGAGAAGGGCUGAGGCACC [JL SSNG3 1.18] (Eterna round: R96, puzzle: Same State NG 3) : 16.8 nM

Field: next sequence
// returns reported apparent KD of MS2 coat protein for input AUUAUUAGUGCAGGAUAUGAUUAACAUGAGGAUCACCCAUGUGGUGUUGUGAGUAAGGAGAGUGAUCAGAAGGGCAUUUUUUUU [JMF's solution 21] (Eterna round: R96, puzzle: Same State NG 2) 659 nM

###

system: MS2 coat protein; experiment: apparent KD of MS2 coat protein; designed switch direction (-1 OFF switch, 1 ON switch): -1; higher = weaker reporter binding; details: input ligand: none
Recorded apparent KD of MS2 coat protein for the following sequences
# value in µM; strip the unit string

1) UGUUGUCGCGUAGGAUAUGGCCAACAGGCCCUAGGAUAUGGGAAACCAGAAGGAGCGCCAACAGGCGAGAAGGACGGGACAACU [pwkr exNG2 2xF7 2xFMN.19] (Eterna round: R96, puzzle: Exclusion NG 2) : 0.268
2) UAUGGUUAAGUCAGGAUAUGCUCGUAGAGGUCUAUGCAGAAGGGACAUGAGGAUCACCCAUGUAAAGUCGUGUU [Ex4 #70] (Eterna round: R97, puzzle: Brourd's mod of Exclusion 4) : 0.0251
3) UUAAAUCAUGUAGGAUAUGCGUGGCGAAGCUAUGCAGAAGGACAUGAGGAUCACCCAUGUUCUAGCGUCUGAGUACAGAUGCAA [Mat - Exclusion NG 1 - Mod of JL - D2] (Eterna round: R96, puzzle: Exclusion NG 1) : 0.0189
4) CUGCUCCGUGUAGGAUAUGCGCGCAACCAACGCGCAGAAGGACAUGAGGAUCACCCAUGUAUGUUAUUAUCACGUGAGGCGCAG [Design 33] (Eterna round: R96, puzzle: Exclusion NG 1) : 0.0166
5) AAGAAACAUGAGGAUCACCCAUGUGAGGAUAUGGCCCGCCCGGCGUGAGCUGGUUUUGUCAGAAGGCACAAAGG [salish99_ex1_r4_017] (Eterna round: R97, puzzle: Exclusion 1) : 0.0419
6) GCGAUAACCGAGGAUAUCGGUGAUAGAGAUAAUUGAGAAGGCGGUACAUGAGGAUCACCCAUGUAUACGUGGGC [Eternabot (L2) Solution 87] (Eterna round: R97, puzzle: Exclusion 6) : 0.0157
7) GGCCCGGGAGGAUAUACAUGAGGAUCACCCAUGUAGCCCGGCCCGAUCGGGCCGGGCUGUAGAAGGCCCGGGCC [-49.2, -46.3 kcal, 19% A] (Eterna round: R97, puzzle: Exclusion 3) : 0.013
8) ACAUGAUGCUUAGGAUAUGUUCUUACGCCAUGAAUAGAAGGGAGCGGACAGAAGUGACCUGACAUGAGGAUCACCCAUGUCUAA [Isusus] (Eterna round: R96, puzzle: Exclusion NG 1) : 0.0803

// returns reported apparent KD of MS2 coat protein for input CAAUGACAUGAGGAUCACCCAUGUGAGGAUAUGGAGCGAGACCGCGCGGUCGCGUACACCAGAAGGCGCAGGCG [1st #66] (Eterna round: R97, puzzle: Exclusion 1) 0.0379

// returns reported apparent KD of MS2 coat protein for input GUCAGCUCGUGAGGAUAUGCACAUGAGGAUCACCCAUGUAAGAUCAAGCUGCUUCGGCAGCAAGUGCAGAAGGCACGAGCUGAC [ENG2/9-A1] (Eterna round: R96, puzzle: Exclusion NG 2) 0.303

// returns reported apparent KD of MS2 coat protein for input AAUCCUGAAGUUAGGAUAUGAAGUAUCACUACACUUUAGAAGGAACUUGAGGAUCACCCAAGUAGCCGUGAGGC [jl-bmx4.4.65 ViennaUCT mod] (Eterna round: R97, puzzle: Brourd's mod of Exclusion 4) 0.0224

// returns reported apparent KD of MS2 coat protein for input ACUUAUAGAGGAUAUACAGUUAAUUACAUGAGGAUCACCCAUGUUCUUCAAUGUAUAUAAGUAGAAGGCUAAGAAA [Mat - Exclusion 5 - Eli Mod - D5] (Eterna round: R97, puzzle: Exclusion 5) 0.0135

// returns reported apparent KD of MS2 coat protein for input GCACGACAUGAGGAUCACCCAUGUGAGGAUAUUUAGACGCCUGUGAAUGCAGCCAUUUAGAGAAGGCAUUGGGU [Eternabot (L1) Solution 99] (Eterna round: R97, puzzle: Exclusion 1) 0.0439

// returns reported apparent KD of MS2 coat protein for input AAAUCGGUAGAGGAUAUUGUACAGGAAACGGUGCAAGAAGGUUGCACAUGAGGAUCACCCAUGUUAAAUUGCGA [EX6 #51] (Eterna round: R97, puzzle: Exclusion 6) 0.0388

// returns reported apparent KD of MS2 coat protein for input AGAUGCUCAAGUCGACAUGAGGAUCACCCAUGUACAGUUAAUGAGGAUAUCCGAGAUAAAUAAUAGGAGAAGGCGUGAUCAUGA [Ex NG3 #7] (Eterna round: R96, puzzle: Exclusion NG 3) 0.458

// returns reported apparent KD of MS2 coat protein for input AAACCUAGUCUAGGAUAUGGUGAGAGUUUGUCGGUGAGUACAUGAGGAUCACCCAUGUACGCUUGCUAGAAGGAGACAGGCUCG [Eternabot solution 37] (Eterna round: R96, puzzle: Exclusion NG 2) 0.0146

// returns reported apparent KD of MS2 coat protein for input AGUUGUUCAGGAUAUGAUGUAUGUUACAUGAGGAUCACCCAUGUAGGUCCUGGAUAUGUAUCAGAAGGGAAUAUCU [JR_Ex5_Sub059] (Eterna round: R97, puzzle: Exclusion 5) 0.032

// returns reported apparent KD of MS2 coat protein for input ACAAGCUCUUUGCAACUUAGUUUUGUUGCUUCGUAGGUAACAUGAGGAUCACCCAUGUAAGACUGAUGUCGUCUUAU [JR_SV3TOV2_Sub086] (Eterna round: R96, puzzle: Sensor v3, turn-off variant 2) 0.0382
